Test Details: Pharmacokinetics after single IV bolus dose in rats
Condition Set: male, Sprague-Dawley, rat, plasma, iv
Quantity Measured: Vd

Q) Requested field: Vd. Item: `C[C@H](Nc1cc(Cl)nc2c1cnn2[C@@H]1O[C@H](COP(=O)(O)CP(=O)(O)O)[C@@H](O)[C@H]1O)c1ccccc1F`
A) 0.12 L/kg

====

Test Details: Pharmacokinetics in preclinical species, summary across species
Assay type: in vivo, mice, rats, dogs, monkeys
Condition Set: both sexes, CD-1 (mouse), Sprague-Dawley (rat), beagle (dog), mouse, rat, dog, cynomolgus monkey, plasma; range over preclinical species, single IV dose; read-out: terminal half-lives
Quantity Measured: half-life

INSERT INTO assay_data (input_smiles, quantity_measured, test_result) VALUES
  ('C[C@H](Nc1cc(Cl)nc2c1cnn2[C@@H]1O[C@H](COP(=O)(O)CP(=O)(O)O)[C@@H](O)[C@H]1O)c1ccc(F)cc1', 'half-life', '6.5 to 34 h');

Now turn to the next compound.
Q) Bench note: what half-life did `C[C@H](Nc1cc(Cl)nc2c1cnn2[C@@H]1O[C@H](COP(=O)(O)CP(=O)(O)O)[C@@H](O)[C@H]1O)c1ccccc1F` show?
A) 3.5 to 41 h

====

Test Details: Pharmacokinetics after single IV bolus dose in monkeys
Condition Set: male, cynomolgus monkey, in vivo, iv
Quantity Measured: Vd (L/kg)
The reply should be a number in L/kg, with the unit left off.

Q) Which value of Vd has been reported for `C[C@H](Nc1cc(Cl)nc2c1cnn2[C@@H]1O[C@H](COP(=O)(O)CP(=O)(O)O)[C@@H](O)[C@H]1O)c1ccc(F)cc1` in the records?
A) 0.078
